Listed below: log10 of IC50 values for each entry.
Target: PDGF-receptor beta enzyme comprising the tyrosine kinase domain (Homo sapiens, UniProt P09619)
Construct: from amino acid 545 to 1106 of GenBank Access NO: AAA36427
Sequence (P09619 545-1106): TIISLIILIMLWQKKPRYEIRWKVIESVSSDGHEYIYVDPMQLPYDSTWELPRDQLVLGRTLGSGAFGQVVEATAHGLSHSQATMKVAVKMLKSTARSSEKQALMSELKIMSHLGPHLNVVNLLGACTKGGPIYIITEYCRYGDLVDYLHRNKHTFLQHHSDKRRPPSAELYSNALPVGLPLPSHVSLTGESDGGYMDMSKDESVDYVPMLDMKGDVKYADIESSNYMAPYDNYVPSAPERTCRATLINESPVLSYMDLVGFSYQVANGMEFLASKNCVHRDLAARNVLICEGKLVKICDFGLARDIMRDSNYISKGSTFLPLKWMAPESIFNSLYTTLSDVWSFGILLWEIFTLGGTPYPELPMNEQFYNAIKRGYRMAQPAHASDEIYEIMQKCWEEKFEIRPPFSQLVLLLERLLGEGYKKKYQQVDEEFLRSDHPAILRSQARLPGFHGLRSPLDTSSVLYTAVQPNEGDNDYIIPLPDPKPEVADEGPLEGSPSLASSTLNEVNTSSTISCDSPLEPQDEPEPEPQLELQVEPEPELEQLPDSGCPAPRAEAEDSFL
Test: Inhibition of PDGF-receptor kinase activity (cell-free, PLC1 peptide, 33P Flashplate)
Assay type: biochemical
Conditions: PDGF-R kinase activity; read-out: IC50
Recall that a logarithmic scale is used here: each number is log10 of IC50 in nM.

Prompt: Please report the recorded log10 of IC50 for `CCOC(=O)CCNC(=O)n1nc2c(c1Nc1ccccc1)Cc1cc(OC)c(OC)cc1-2` .
Completion: 1.92

Prompt: GET /values?readout=log10 of IC50&item= `COc1ccc(OC)c(Nc2[nH]nc3c2Cc2cc(OCCCN(C)C)ccc2-3)c1`
Completion: 4.74

Prompt: Suppose we examine the compound `COc1cc2c(cc1F)Cc1c-2n[nH]c1Nc1ccc(F)c(Cl)c1` ; what log10 of IC50 value has been reported?
Completion: 1.62

Prompt: Fill blank: measured log10 of IC50 of the compound CCC1c2cc(OC)c(OC)cc2-c2n[nH]c(Nc3cccc(OC)c3)c21 (stereo not drawn) is ____.
Completion: 2.26

---
Prompt: Quick check: log10 of IC50 of `Fc1ccc2c(c1)Cc1c-2n[nH]c1Nc1ccccc1` ?
Completion: 1.92

Prompt: Fill blank: measured log10 of IC50 of the compound `COc1cc2c(cc1F)Cc1c-2n[nH]c1NCc1ccccc1C` is ____.
Completion: 0.36

Prompt: Fill in: log10 of IC50 of `COc1cc2c(cc1OC)-c1n[nH]c(Nc3ccc(N4CCN(C)CC4)cc3)c1C2` is ___
Completion: 4.43

Prompt: Look up log10 of IC50 for this compound: `COc1cc2c(cc1OC)-c1n[nH]c(Nc3ccc(F)c(C(F)(F)F)c3)c1C2`
Completion: 2.89

Prompt: Reported log10 of IC50, compound `COc1cc2c(cc1OC)-c1c(c(Nc3cccc(F)c3)nn1C(=O)Oc1ccccc1Cl)C2` : ____
Completion: 2.89

* * *

Target: PDGF-receptor beta enzyme comprising the tyrosine kinase domain (Homo sapiens)
Construct: from amino acid 545 to 1106 of GenBank Access NO: AAA36427
Assay: Inhibition of PDGF-receptor kinase activity (cell-free, PLC1 peptide, 33P Flashplate)
Format: biochemical
Settings: PDGF-R kinase activity; read-out: IC50
measurement_name: IC50 (nM)
Write the number in nM without appending the unit.

Prompt: Which IC50 is reported with PDGF-receptor beta enzyme comprising the tyrosine kinase domain (Homo sapiens) for this entry: `CCOc1cc2c(cc1OCCCO)-c1n[nH]c(Nc3cccc(Cl)c3)c1C2` ?
Completion: 8.14

Further cases:
Prompt: Provide the documented IC50 with PDGF-receptor beta enzyme comprising the tyrosine kinase domain (Homo sapiens) as the system for `COCC(=O)n1nc(Nc2cccc(F)c2)c2c1-c1cc(OC)c(OC)cc1C2`
Completion: 6.73

Prompt: Field: IC50 (PDGF-receptor beta enzyme comprising the tyrosine kinase domain (Homo sapiens)). Entry: `Fc1ccc2c(c1)Cc1c-2n[nH]c1Nc1ccc(OC(F)(F)F)cc1`
Completion: 419

Prompt: What reported IC50 corresponds to `COc1ccc(OC)c(CNc2[nH]nc3c2Cc2cc(F)ccc2-3)c1` on PDGF-receptor beta enzyme comprising the tyrosine kinase domain (Homo sapiens)?
Completion: 3400

Prompt: Recall the recorded IC50 for `COc1cccc(Nc2[nH]nc3c2Cc2cc(OCCCO)c(OCCCO)cc2-3)c1` with PDGF-receptor beta enzyme comprising the tyrosine kinase domain (Homo sapiens) and state it.
Completion: 2.92
